- EXPERIMENTAL DETAILS: Water solubility by UV spectrophotometric method
- Assay type: physicochemical
- COND: water, saturated solution; Table 1; read-out: Solubility by UV method
Output Condition met for solubility not less than 50 µg/mL; output Condition not met otherwise.

A selection of reference data follows.
{"columns": ["COMPOUND", "ASSIGNED CLASS"],
 "data": [
  ["CCCCn1sc(Cl)c(Cl)c1=O", "Condition met"],
  ["CCCCCCCCn1sc(Cl)cc1=O", "Condition met"],
  ["CCCCCCn1sc(Cl)c(Cl)c1=O", "Condition met"]
]}

Given the entry CCC(C)CC(CC)n1sc(Cl)cc1=O (centres unmarked) , answer whether its solubility meets or surpasses 50 µg/mL.
Condition met

Would you kindly repeat that for "O=c1c(Br)c(Br)sn1Cc1ccc(Cl)cc1" ?
Condition not met

Now give it for "CCCCCCCCn1sc(Cl)c(Br)c1=O" too.
Condition not met

Ok, now "Cc1c(Cl)sn(-c2ccccc2Cl)c1=O"
Condition not met

Same question for "Cc1c(Cl)sn(Cc2ccccc2)c1=O" please.
Condition met

Moving on to "O=c1c(Br)c(Cl)sn1Cc1ccc(Cl)cc1"
Condition not met

Note, next up: CC1CC(n2sc(Cl)cc2=O)CC(C)(C)C1 (centres unmarked)
Condition met
